- Assay Explanation: yeast display, Sf9 membrane polyspecificity reagent, FACS + sequencing; frameworks hold sequencing errors
Measurement Name: polyreactivity (PSR sort gate)

The examples below pair each entry with its known result.
{"columns": ["Residues", "polyreactivity (PSR sort gate)"],
 "data": [
  ["QVQLVESGGGLVQAGGSLRLSCAASGSTFSTNAMGCYRQAPGKERELVAAISGRGGRTYYADSVKGRFTISRDNAKNTVYLQMTSLKPEDTAVYYCNTDSYLRMDYWGQGTQVTVSS", "high polyreactivity"],
  ["QVQLVESGGGLVQAGGSLRLSCAASGFIFGYNAMGWYRQAPGIERELVAAITASGGSTYYADSVKGRFTISLDNAKNTVYLQLNSLIPEDTAVYYCATVLRKNGERGNRLYYWGQGTQVTVSS", "high polyreactivity"],
  ["QVQLVESGGGLVQAGGSLRLSCAASGSTFGGYAMGWYRQAPGKERELVAAISKSGGSTYYADSVKGRFTISRDNAKNTVYLQMNSLKPEDTAVYYCNAPYKRSPYNYWGQGTQVTVSS", "high polyreactivity"],
  ["QVQLVESGGGLVQAGGSLRLSCAASGRIFYSYAMGWYRQAPGKEREFVAAISRSGARTYYADSVKGRFTISRDNAKNTVYLQMNSLKPEDTAVYYCAADDFSTVEYDYWGQGTQVTVSS", "low polyreactivity"]
]}

The sequence "QVQLVESGGGLVQAGGSLRLSCAASGFIFRWYAMGWYRQAPGKERELVAAISRSGDSTYYADSVKGRFTISRDNAKNTVYLQKNSLKPEDTAVYYCAADDRYYTYGYDYWGQGTQVTVSS" showed polyreactivity (PSR sort gate) equal to low polyreactivity

Data provenance is the nanobody polyreactivity screen of Harvey et al. (2022).
